# Study System: PfRH5 from Plasmodium falciparum strain Cam3.II (Plasmodium falciparum)
# Experimental Protocol: cell-based or functional assay
Reported Endpoint: Max growth inhibition (%)

Binder	Reported Endpoint	Unit	Number
H1H29100P (antibody, V domains shown) VH: QLQLQESGPGLVKPSETLSLTCTVSGGSISSSSYYWGWIRQPPGKGLEWIGIIYYSGSTYYNPSLKSRVTISVDTSKNQFSLKLSSVTAADTAVYYCARQDREALFDYWGQGTLVTVSS VL: EIVLTQSPDFQSVTPKEKVTITCRASQRIGSSLHWYQQKPDQSPKLLIKYASQSFSGVPSRFSGSGSGTDFTLTINSLEAEDAATYYCHQSSTLPTFGQGTRLEIKR	Max growth inhibition (%)	%	52.4
H1H29109P (antibody, V domains shown) VH: EVQLVESGGGLVQPGRSLRLSCAVSGFTFDDYAMHWVRQAPGKGLEWVSGISWNSGDIDYADSVKGRFTISRDNAKNSLYLQMNSLRAEDTALYYCAKDTLSGTGTTWYYFDYWGQGTLVTVSS VL: DIQLTQSPSFLSASVGDRVTITCWASQGISSYLIWYQQKPGKAPKLLIYAASTLQSGVPSRFSGSGSGTEFTLTISSLQPEDFATYYCQQVNSYPLTFGGGTKVEIKR	Max growth inhibition (%)	%	35.9
H1H29089P (antibody, V domains shown) VH: EVQLVQSGAEVKKPGESLKISCKGSGYSFTSYWIVWVRQMPGKGLEWMGIIYPGDSDTRYSPSFQGQVTISADKSISTAYLQWSSLKASDTAMYYCARQDITGTTGFDYWGQGTLVTVSS VL: DIQMTQSPSSLSASVGDRVTITCRASQSIRNYLNWYQQKPGKAPKLLIYAASSLQSGVPSRFSGSGSGTDFTLTISSLQPEDFATYFCQQSYSTPFTFGPGTKVDIKR	Max growth inhibition (%)	%	56.2
H1H29138P (antibody, V domains shown) VH: QVQLVESGGGVVQPGRSLRLSCAASGFTFSTYGMHWVRQAPGKGLEWVAVIWYDGTNKYYADSVKGRFTISRDNSKNTLYLQMISLRAEDTAVYYCARDPSGGDHYYYYGMDVWGQGTTVTVSS VL: DIQMTQSPSSLSASVGDRITITCQASQDISNYLNWYQQKPGKAPNLLISDASDLETGVPSRFSGSGSGTDFTFTISSLQPEDFATYYCQQYDNIPITFGQGTRLEIKR	Max growth inhibition (%)	%	48.7

All values here come from patent US20210024625A1.
